Where do the numbers come from? From paper PMC8321398.

Test: In vivo efficacy, mouse model of adult (42-day old) S. mansoni infection
Conditions: female, CD1, mouse, plasma, po, 12.5 mg/kg, mouse, Adult infection, oral 12.5 mg/kg, formulation Aq; read-out: Plasma conc @24 h (efficacy experiment)
Description: Prior to in vivo efficacy experiments, a single animal was given a dose of drug (using the same formulation) that was twice as large as that planned for use in the efficacy experiments and was observed periodically for adverse clinical signs for 24h by trained veterinarians. […] In vivo efficacy was assessed in female CD1 mice using methods based on those previously described. […] Worms were recovered by portal perfusion with citrate saline 8–14 days post treatment and counted. […]
Parameter Measured: concentration at 24 h (ng/mL)

>  <Entry Smiles>
Fc1ccc(-c2cn3c(-c4ccc5[nH]ncc5c4F)c(C(F)(F)F)nc3cn2)cc1C(F)(F)F

>  <Measured>
939

$$$$

----------
tested on: Adult S. mansoni; assay: In vitro adult S. mansoni worm assay; format: cell-based; settings: Schistosoma mansoni; Table 3; S. mansoni, 120 h incubation; read-out: Sm adult EC50
Binary label based on EC50 with cut-off 30 nM: below gives yes (1), not below gives no (0).

>  <Entry Smiles>
Fc1c(-c2c(C(F)(F)F)nc3cnc(-c4cccc(C(F)(F)C(F)(F)F)c4)cn23)ccc2[nH]ncc12

>  <Class Name>
yes (1)

$$$$
>  <Entry Smiles>
CC(C)c1cc(-c2cn3c(-c4ccc5[nH]ncc5c4F)c(C4CC4)nc3cn2)ccc1F

>  <Class Name>
yes (1)

$$$$
>  <Entry Smiles>
Fc1ccc(-c2cn3c(-c4ccc5[nH]ncc5c4F)c(C(F)(F)F)nc3cn2)cc1C(F)(F)C(F)(F)F

>  <Class Name>
yes (1)

$$$$
>  <Entry Smiles>
Fc1ccc(-c2cn3c(-c4ccc5[nH]ncc5c4F)c(C(F)(F)F)nc3cn2)cc1C(F)(F)F

>  <Class Name>
yes (1)

$$$$
>  <Entry Smiles>
CC(C)c1cc(-c2cn3c(-c4ccc5[nH]ncc5c4F)c(C(F)(F)F)nc3cn2)ccc1F

>  <Class Name>
yes (1)

$$$$
>  <Entry Smiles>
CC(C)c1nc2cnc(-c3ccc(F)c(C(F)(F)F)c3)cn2c1-c1c(F)cc(O)cc1F

>  <Class Name>
no (0)

$$$$

----------
assay: Plasma protein binding in mouse plasma at 10 uM, equilibrium dialysis; format: in vitro ADME

>  <Entry Smiles>
Fc1ccc(-c2cn3c(-c4ccc5[nH]ncc5c4F)c(C(F)(F)F)nc3cn2)cc1C(F)(F)C(F)(F)F

>  <Mouse plasma protein %binding>
100%

$$$$
>  <Entry Smiles>
CC(C)Oc1cc(-c2cn3c(-c4ccc5[nH]ncc5c4F)c(C(F)(F)F)nc3cn2)ccc1F

>  <Mouse plasma protein %binding>
99.8775%

$$$$
>  <Entry Smiles>
CC(C)c1cc(-c2cn3c(-c4ccc5[nH]ncc5c4F)c(C4CC4)nc3cn2)ccc1F

>  <Mouse plasma protein %binding>
99.997%

$$$$

----------
tested on: HepG2 cells; experiment: Cytotoxicity, HepG2 cells with MTT; assay type: cell-based, human; conditions: Table 2; hepG2 cell line, 72 h incubation
Listing: Cytotox TC50 of selected molecules

>  <Molecule>
Fc1c(-c2c(C(F)(F)F)nc3cnc(-c4cccc(C(F)(F)C(F)(F)F)c4)cn23)ccc2[nH]ncc12 [LSHTM-3608]

>  <Measured Target>
HepG2 cells

>  <Cytotox TC50>
10,900 nM

$$$$
>  <Molecule>
CC(C)c1cc(-c2cn3c(-c4ccc5[nH]ncc5c4F)c(C4CC4)nc3cn2)ccc1F [LSHTM-3686]

>  <Measured Target>
HepG2 cells

>  <Cytotox TC50>
15,800 nM

$$$$
>  <Molecule>
CC(C)c1nc2cnc(-c3ccc(F)c(C(F)(F)F)c3)cn2c1-c1c(F)cc(O)cc1F [LSHTM-3520]

>  <Measured Target>
HepG2 cells

>  <Cytotox TC50>
7,130 nM

$$$$
>  <Molecule>
Fc1ccc(-c2cn3c(-c4ccc5[nH]ncc5c4F)c(C(F)(F)F)nc3cn2)cc1C(F)(F)F [LSHTM-3642]

>  <Measured Target>
HepG2 cells

>  <Cytotox TC50>
16,600 nM

$$$$
>  <Molecule>
CC(C)c1cc(-c2cn3c(-c4ccc5[nH]ncc5c4F)c(C(F)(F)F)nc3cn2)ccc1F [LSHTM-3661]

>  <Measured Target>
HepG2 cells

>  <Cytotox TC50>
17,000 nM

$$$$
>  <Molecule>
Fc1ccc(-c2cn3c(-c4ccc5[nH]ncc5c4F)c(C(F)(F)F)nc3cn2)cc1C(F)(F)C(F)(F)F [LSHTM-3645]

>  <Measured Target>
HepG2 cells

>  <Cytotox TC50>
11,700 nM

$$$$
>  <Molecule>
CC(C)Oc1cc(-c2cn3c(-c4ccc5[nH]ncc5c4F)c(C(F)(F)F)nc3cn2)ccc1F [LSHTM-3690]

>  <Measured Target>
HepG2 cells

>  <Cytotox TC50>
9,250 nM

$$$$
>  <Molecule>
CC(C)c1nc2cnc(-c3ccc(F)c(C(F)(F)F)c3)cn2c1-c1ccc2[nH]ncc2c1F [LSHTM-3604]

>  <Measured Target>
HepG2 cells

>  <Cytotox TC50>
12,000 nM

$$$$

----------
assay: Binding in the assay medium; type: in vitro ADME; conditions: bovine, assay medium of the in vitro potency assay; read-out: free fraction, Fu

>  <Compound>
CC(C)c1nc2cnc(-c3ccc(F)c(C(F)(F)F)c3)cn2c1-c1c(F)cc(O)cc1F [LSHTM-3520]

>  <fraction unbound>
0.0014

$$$$

----------
experiment: Mouse pharmacokinetics; assay type: in vivo; conditions: male, Swiss albino, plasma, oral, 50 mg/mL, scaled from […] to 50 mg/mL (so in the source), linear kinetics assumed, read-out: plasma level after 24 h scaled from the low-dose oral PK experiment;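 also: three mice per experiment, dosed in 10% DMSO with 50 mM Na2HPO4 buffer plus Tween-80, plasma levels quantified by LC-MS against a calibration line prepared in blank matrix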
Parameter Measured: concentration at 24 h

>  <Entry Smiles>
CC(C)c1nc2cnc(-c3ccc(F)c(C(F)(F)F)c3)cn2c1-c1c(F)cc(O)cc1F

>  <Parameter Measured>
concentration at 24 h

>  <Measured>
160 ng/mL

$$$$

----------
assay: Plasma protein binding in human plasma at 10 uM, equilibrium dialysis; assay type: in vitro ADME

>  <Compound>
Fc1ccc(-c2cn3c(-c4ccc5[nH]ncc5c4F)c(C(F)(F)F)nc3cn2)cc1C(F)(F)C(F)(F)F [LSHTM-3645]

>  <Human plasma protein %binding [%]>
100

$$$$
>  <Compound>
CC(C)c1nc2cnc(-c3ccc(F)c(C(F)(F)F)c3)cn2c1-c1ccc2[nH]ncc2c1F [LSHTM-3604]

>  <Human plasma protein %binding [%]>
99.9973

$$$$
>  <Compound>
CC(C)c1nc2cnc(-c3ccc(F)c(C(F)(F)F)c3)cn2c1-c1c(F)cc(O)cc1F [LSHTM-3520]

>  <Human plasma protein %binding [%]>
99.9895

$$$$
>  <Compound>
Fc1ccc(-c2cn3c(-c4ccc5[nH]ncc5c4F)c(C(F)(F)F)nc3cn2)cc1C(F)(F)F [LSHTM-3642]

>  <Human plasma protein %binding [%]>
99.9895

$$$$
>  <Compound>
CC(C)Oc1cc(-c2cn3c(-c4ccc5[nH]ncc5c4F)c(C(F)(F)F)nc3cn2)ccc1F [LSHTM-3690]

>  <Human plasma protein %binding [%]>
99.925

$$$$
>  <Compound>
Fc1c(-c2c(C(F)(F)F)nc3cnc(-c4cccc(C(F)(F)C(F)(F)F)c4)cn23)ccc2[nH]ncc12 [LSHTM-3608]

>  <Human plasma protein %binding [%]>
100

$$$$
>  <Compound>
CC(C)c1cc(-c2cn3c(-c4ccc5[nH]ncc5c4F)c(C4CC4)nc3cn2)ccc1F [LSHTM-3686]

>  <Human plasma protein %binding [%]>
99.998

$$$$

----------
experiment: Plasma protein binding in human plasma at 10 uM, equilibrium dialysis; format: in vitro ADME; conditions: human, human plasma, pH 7.4
Parameter Measured: recovery at 6 h, 10 µM (%)

>  <Entry Smiles>
Fc1c(-c2c(C(F)(F)F)nc3cnc(-c4cccc(C(F)(F)C(F)(F)F)c4)cn23)ccc2[nH]ncc12

>  <Value Units>
%

>  <Measured>
97.8

$$$$
>  <Entry Smiles>
CC(C)c1cc(-c2cn3c(-c4ccc5[nH]ncc5c4F)c(C4CC4)nc3cn2)ccc1F

>  <Value Units>
%

>  <Measured>
62.7

$$$$
>  <Entry Smiles>
Fc1ccc(-c2cn3c(-c4ccc5[nH]ncc5c4F)c(C(F)(F)F)nc3cn2)cc1C(F)(F)F

>  <Value Units>
%

>  <Measured>
97.4

$$$$
>  <Entry Smiles>
CC(C)c1nc2cnc(-c3ccc(F)c(C(F)(F)F)c3)cn2c1-c1c(F)cc(O)cc1F

>  <Value Units>
%

>  <Measured>
97.1

$$$$
>  <Entry Smiles>
Fc1ccc(-c2cn3c(-c4ccc5[nH]ncc5c4F)c(C(F)(F)F)nc3cn2)cc1C(F)(F)C(F)(F)F

>  <Value Units>
%

>  <Measured>
85.8

$$$$
>  <Entry Smiles>
CC(C)c1nc2cnc(-c3ccc(F)c(C(F)(F)F)c3)cn2c1-c1ccc2[nH]ncc2c1F

>  <Value Units>
%

>  <Measured>
92.4

$$$$
>  <Entry Smiles>
CC(C)Oc1cc(-c2cn3c(-c4ccc5[nH]ncc5c4F)c(C(F)(F)F)nc3cn2)ccc1F

>  <Value Units>
%

>  <Measured>
89

$$$$
